The origin of these recorded values is PubChem BioAssay (NCI).

system: NCI/ADR-RES ovarian; experiment: NCI tumour cell line growth inhibition, 48 h
Entries annotated with measured TGI
Write the answer as a number in µM, unit excluded.

# annotated cases, reported TGI shown
O=[N+]([O-])/C(C(Cl)=C(Cl)Cl)=C(/Cl)Sc1ccccc1 | 2.35
O=C1OCC2=C1C(c1cccc(Br)c1)c1cc3c(cc1N2CCO)CCC3 (stereo not given) | 0.234
CCCCCCOC(=O)/C=C/[C@]1(CO)C/C(=C/CC(C(C)C)C(C)C)C(=O)O1 | 28.1
CC[C@H]1[C@@H]2C=C[C@@H]3[C@H]4C/C=C\C(=O)NCCC[C@@H]5NC(=O)/C(=C(O)/C=C/[C@@H]4C[C@@H]3[C@H]2C[C@H]1C)C5=O | 2.36

Now turn to the next compound.
**Q:** # lookup: TGI of CC(C)=CC[C@]12CCN[C@H]1N(S(=O)(=O)c1ccccc1)c1ccccc12
**A:** 30.5

----------
test system: SNB-75 CNS; assay: NCI tumour cell line growth inhibition, 48 h
reportedEndpoint: TGI

# annotated cases, reported TGI shown
CN=C1CC2c3cc(OC)c(OC)cc3CCN2C2=C1C(=O)CC(C)(C)C2 (stereo unspecified) | > 100 µM
Cc1ccc(NC(=O)CCc2cc(C(C)(C)C)nc(=S)[nH]2)cc1C | > 100 µM
O=C(CSc1nc2ccccc2nc1-c1ccccc1)Nc1ccc(F)cc1 | 80.8 µM
CCC(C)COC(=O)c1ccc(N=Cc2ccc(C=Nc3ccc(C(=O)OCC(C)CC)cc3)cc2)cc1 (stereo unspecified) | > 100 µM
CCOC1OC(=O)c2cc3ccc4c(c3c(-c3ccc5c(c3)OCO5)c21)OCO4 (stereo unspecified) | 15.5 µM
O=C(CCc1n[nH]c(=S)o1)Nc1ccccc1C(F)(F)F | > 100 µM
Cc1ccnc2[nH]c3ccccc3c(=O)c12 | 32.1 µM
Cn1c(=O)c2c(nc(Cc3ccccc3)n2CC(=O)O)n(C)c1=O | > 100 µM
Clc1ccc2[nH]cc(-c3nnnn3-c3ccccc3)c2c1 | 30.8 µM
CN1CCOC(c2ccccc2)O1 (stereo unspecified) | > 100 µM

**Q:** # lookup: TGI of N#C/C1=C(\N)CCSSSC1
**A:** > 100 µM

----------
Entries annotated with measured TGI
test system: SF-268 CNS; test: NCI tumour cell line growth inhibition, 48 h
Write the answer as a number in µM, unit excluded.

COc1cc(NS(C)(=O)=O)ccc1Nc1c2ccccc2nc2c1[nH]c1ccc(NC3OC(CO)C(O)C(O)C3O)cc12 (stereo not given) | 1.51
COc1cccc2c1C(=O)c1c(O)c3c(c(O)c1C2=O)C[C@](O)(C(=O)CO)C[C@H]3O[C@@H]1C[C@@H](NC(=O)CCCCCN(C)C2(c3ccc(F)cc3)CC3CCC2C3)[C@H](O)[C@@H](C)O1 (stereo not given in full) | 14.9

Now turn to the next molecule.
**Q:** # lookup: TGI of N#CC(C(=O)C(=O)C(C#N)c1ccc(Br)cc1)c1ccc(Br)cc1 (stereo not given)
**A:** 32.4

----------
Entries annotated with measured TGI
test system: A549 NSCLC; assay: NCI tumour cell line growth inhibition, 48 h

Nc1c(C(=O)Nc2ccncc2)sc2nc3c(cc12)CCCCCCCC3 | 2 µM

**Q:** Provide value of TGI for this record tested with A549 NSCLC: CC(=O)Oc1c2c(c(O)c3ccccc13)C(n1cnc3c(ncn3C3OC(CO)C4OC(C)(C)OC43)c1=N)CCC2 (configuration not stated)
**A:** 35.4 µM

**Q:** Provide value of TGI for this record tested with A549 NSCLC: CC(CO)(CO)N1C(=O)C2C3C=CC(C3)C2C1=O (configuration not stated)
**A:** > 100 µM

**Q:** Provide value of TGI for this record tested with A549 NSCLC: CCC(/C=C/C1OC(=O)C=CC1C)=C\C(C)C/C=C/C(C)=C/C(C)C(=O)C(C)C(O)C(C)C/C(C)=C/C(=O)O (configuration not stated)
**A:** 3.96 µM

**Q:** Provide value of TGI for this record tested with A549 NSCLC: CC1c2c(Cl)nc3ccccc3c2Oc2c1c(Cl)nc1ccccc21
**A:** > 100 µM

**Q:** Provide value of TGI for this record tested with A549 NSCLC: O=C(O)CCC(NC(=O)c1ccc(Nc2nc3cc(C(F)(F)F)ccc3nc2-c2ccccc2)cc1)C(=O)O (configuration not stated)
**A:** > 100 µM

**Q:** Provide value of TGI for this record tested with A549 NSCLC: COc1cc(NCc2ccc3nc(N)nc(N)c3c2C)cc(OC)c1OC (tested in a mixture with another compound)
**A:** 21.9 µM

**Q:** Provide value of TGI for this record tested with A549 NSCLC: CN(C)CCC(=O)c1ccccc1
**A:** > 82.1 µM

**Q:** Provide value of TGI for this record tested with A549 NSCLC: O=c1ccn([C@H]2CSC[C@@H](CO)C2)c(=O)[nH]1
**A:** > 100 µM

----------
system: HL-60(TB) leukemia; experiment: NCI tumour cell line growth inhibition, 48 h
Entries annotated with measured TGI

CS(=O)(=O)CCNCc1nc(-c2ccc3ncnc(Nc4ccc(OCc5cccc(C(F)(F)F)c5)cc4)c3c2)cs1 | > 25 µM
COc1ccc(NC(=O)/C(Cc2cc(=O)oc3cc(O)ccc23)=N\NC(C)(C)C)c(OC)c1 | > 100 µM
NCc1ccccc1-c1c2nc(c(-c3ccccc3CN)c3ccc([nH]3)c(-c3ccccc3CN)c3nc(c(-c4ccccc4CN)c4ccc1[nH]4)C=C3)C=C2 | 33.3 µM
[N-]=[N+]=N[C@H]1C[C@@H](CO)O[C@H]1n1cnc2c(N)ncnc21 | > 100 µM

Now turn to the next compound.
**Q:** # lookup: TGI of O=C1CCCC1CN1CCCC1 (stereo not given)
**A:** 3.02 µM

----------
tested on: ACHN renal; experiment: NCI tumour cell line growth inhibition, 48 h
Entries annotated with measured TGI

O=C(CCc1n[nH]c(=S)o1)Nc1ccccc1C(F)(F)F | > 100 µM
C=CCCCCOc1ccccc1-c1cnc(OCCCCC=C)n1C | 38.9 µM
COC(CNC(=O)C(C)NC(=O)/C=C/c1ccccc1)OC (stereo unspecified) | > 100 µM
Cc1ccc(NC(=O)CCc2cc(C(C)(C)C)nc(=S)[nH]2)cc1C | > 100 µM
S=C(S)NCNC(=S)S.[Zn+2] | > 100 µM
O=C(Cn1c[n+](CC(=O)c2ccc(-c3ccccc3)cc2)c2ccccc21)Nc1cccc2cccnc12 | 10.7 µM
Oc1[nH]c2ccccc2c1N=NC(=S)Nc1cccc(Cl)c1 | 28.8 µM
CN(C)CC1CCCC/C1=N/OC(=O)c1ccc(Cl)cc1 (stereo unspecified) | > 100 µM

**Q:** # lookup: TGI of N#Cc1c(N)n(-c2cccc(C(=O)O)c2)c(=O)c2cc([N+](=O)[O-])ccc12
**A:** > 100 µM

**Q:** # lookup: TGI of CCOC(=O)NC(Nc1ccc(S(=O)(=O)Nc2nc(C)cc(C)n2)cc1)(C(=O)OCC)C(F)(F)F (stereo unspecified)
**A:** > 100 µM

**Q:** # lookup: TGI of CCCc1nc(NC#N)nc(C(=O)Nc2ccccc2)c1CC
**A:** > 100 µM

----------
Entries annotated with measured TGI
tested on: SK-OV-3 ovarian; test: NCI tumour cell line growth inhibition, 48 h
Where a SMILES comes first, the peptide text is derived from it. The star is where a group is joined. Cbz = O=C(OCc1ccccc1)*; CH2Cl = ClC*

# annotated cases, reported TGI shown
COc1ccc(-[n+]2nc(S(=O)(=O)O)c(/C=C/c3ccc(N(C)C)cc3)cc2C#N)cc1 | > 100 µM
CCOC(=O)CC[C@H](NC(=O)[C@H](N)Cc1ccc(N(CCCl)CCCl)cc1)C(=O)OCC | > 72.8 µM
CC(C)CC(NC(=O)OCc1ccccc1)C(=O)NC(Cc1ccccc1)C(=O)CCl (stereo not drawn) (Cbz-Leu-Phe-CH2Cl; configuration not given here) | 16.1 µM
Cc1[nH]nc(C(F)(F)F)c1N=NN1CCOCC1 | 31.7 µM
COc1ccc(NC(=O)/C(Cc2cc(=O)oc3cc(O)ccc23)=N\NC(C)(C)C)c(OC)c1 | > 100 µM

**Q:** # lookup: TGI of N#CCCN(C(=O)Nc1ccccc1)[C@H]1CCCC[C@@H]1N(C(=O)Nc1ccccc1)c1ccccc1
**A:** > 100 µM

----------
Entries annotated with measured log10 TGI
tested on: UO-31 renal; assay: NCI tumour cell line growth inhibition, 48 h
Use the decimal logarithm of TGI (µM).

# annotated cases, reported log10 TGI shown
O=C1/C(=C/c2ccccc2S)N=C(c2ccccc2)N1c1nc2c(Cl)cc(Cl)cc2s1 | 1.68
O=C(N[C@@H](c1ccc(Cl)c(Cl)c1)C1CNC1)c1ccc2cnccc2c1 | 1.00
Cc1ncc(C(=O)Nc2ccc(CN3CCN(C)CC3)c(C(F)(F)F)c2)cc1C#Cc1cnc(N)c2ccncc12 | 0.36
COc1cccc2c1C(=O)c1c(O)c3c(c(O)c1C2=O)C[C@](O)(C(=O)CO)C[C@H]3O[C@@H]1C[C@@H](NC(=O)CCCCCN(C)C2(c3ccc(F)cc3)CC3CCC2C3)[C@H](O)[C@@H](C)O1 (some centres not stated) | 1.10

Now turn to the next molecule.
**Q:** Provide value of log10 TGI for this record tested with UO-31 renal: CC1OC(OC2C(O)COC(OC3C(C)OC(OC4C(OC(=O)[C@]56CCC(C)(C)C[C@@H]5C5=CCC7[C@@]8(C)C[C@H](O)[C@H](OC9OC(CO)C(O)C(O)C9O)[C@@](C)(CO)[C@@H]8CC[C@@]7(C)[C@]5(C)CC6)OCC(O)C4O)C(O)C3OC3OCC(O)(CO)C3O)C2O)C(O)C(O)C1O (some centres not stated)
**A:** 1.15
